// data source = patent US8546392B2

- TEST: Test for metabolic stability, liver microsomes
- CONDITIONS USED: rat, microsomes, pH 7.4
QUANTITY KIND: microsomal CLint (µL/min/mg)
Record the value in µL/min/mg, omitting the unit from your answer.

Prompt: Which microsomal CLint value is on record for Oc1cccc(-c2ccc3cc(O)ccc3c2)c1 [Compound 19, 6-(3-Hydroxyphenyl)-2-naphthol] ?
Response: 367

====

Provide the reported inhibition at 1 µM of each item.
- MEASURED TARGET: UniProt:P14061
- Sequence (P14061 whole entry): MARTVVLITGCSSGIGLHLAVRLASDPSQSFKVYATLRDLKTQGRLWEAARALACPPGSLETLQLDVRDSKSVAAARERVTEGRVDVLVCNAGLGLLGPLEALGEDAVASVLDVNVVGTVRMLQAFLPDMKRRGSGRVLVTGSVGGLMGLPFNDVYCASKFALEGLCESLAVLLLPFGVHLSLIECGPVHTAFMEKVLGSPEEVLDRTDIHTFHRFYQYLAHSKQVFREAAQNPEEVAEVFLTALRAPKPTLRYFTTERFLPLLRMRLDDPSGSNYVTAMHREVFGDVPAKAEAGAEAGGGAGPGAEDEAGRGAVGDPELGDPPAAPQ
- TEST: 17β-HSD1 test assay (recombinant protein from Sf9 insect cells, 3H-estrone/NADPH)
- Format: biochemical
- CONDITIONS USED: read-out: HSD 1 μM (% inhibition of HSD1); inhibitor 1 μM
Just the number in %, nothing appended.

Prompt: Report inhibition at 1 µM for Oc1cccc(-c2ccc3c(-c4cccc(O)c4)c(O)ccc3c2)c1 [Compound 57, 1,6-Bis(3-hydroxyphenyl)naphthalene-2-ol] tested on UniProt:P14061.
Response: 92.6

Prompt: Provide the documented inhibition at 1 µM with UniProt:P14061 as the system for N#Cc1cc(-c2cccc(O)c2)cc2ccc(O)cc12 [Compound 53]
Response: 74.4

Prompt: Kindly state the measured inhibition at 1 µM obtained for N#Cc1ccccc1S(=O)(=O)Nc1cccc(-c2c(O)ccc3cc(-c4cccc(O)c4)ccc23)c1 [Compound 76] with UniProt:P14061.
Response: 79.7

Prompt: Please provide the recorded inhibition at 1 µM for CC(=O)Nc1cccc(-c2c(O)ccc3cc(-c4cccc(O)c4)ccc23)c1 [Compound 66] , tested on UniProt:P14061.
Response: 81.5

Prompt: // lookup inhibition at 1 µM | system=UniProt:P14061 | key= CC(=O)Nc1cccc(-c2ccc3cc(O)ccc3c2)c1 [Compound 9]
Response: 18.5

Prompt: Give recorded inhibition at 1 µM with UniProt:P14061 for the following compound: O=C(Nc1nccs1)c1cccc(-c2c(O)ccc3cc(-c4cccc(O)c4)ccc23)c1 [Compound 71]
Response: 74.7

Prompt: What value of inhibition at 1 µM on UniProt:P14061 does O=C(/C=C/c1c(O)ccc2cc(-c3cccc(O)c3)ccc12)Nc1ccccc1 [Compound 40] have?
Response: 60.4

Prompt: // fetch UniProt:P14061 inhibition at 1 µM for Cc1cc(O)cc(-c2ccc3cc(O)ccc3c2)c1 [Compound 26, 6-(3-Hydroxy-5-methylphenyl)-2-naphthol]
Response: 41.7

Prompt: Test system UniProt:P14061; read-out inhibition at 1 µM; what value for CNC(=O)c1c(O)ccc2cc(-c3cccc(O)c3)ccc12 [Compound 41] ?
Response: 76.3

Prompt: # value lookup — system UniProt:P14061, readout inhibition at 1 µM, item O=S(=O)(Nc1cccc(-c2c(O)ccc3cc(-c4cccc(O)c4)ccc23)c1)c1ccc(Br)cc1OC(F)(F)F [Compound 82]
Response: 78.4

Prompt: Provide value of inhibition at 1 µM for this record tested with UniProt:P14061: Cc1nnc(NC(=O)c2c(O)ccc3cc(-c4cccc(O)c4)ccc23)s1 [Compound 48]
Response: 68

Prompt: Identify the measured inhibition at 1 µM of Oc1cccc(-c2ccc3c(-c4cncnc4)c(O)ccc3c2)c1 [Compound 61] for UniProt:P14061.
Response: 22.1

Prompt: For the record O=S(=O)(Nc1cccc(-c2c(O)ccc3cc(-c4cccc(O)c4)ccc23)c1)c1ccc2ncsc2c1 [Compound 86] , what value of inhibition at 1 µM is listed for UniProt:P14061?
Response: 80.9
